B1: GNB5 (parent)
chain: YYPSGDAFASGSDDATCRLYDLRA

Variants of: B1
method description: protein stability index of a GFP-peptide fusion (GPS, HEK-293T) (PSI 1-6); higher = more stable;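 further: lentivirally expressed fusions sorted by FACS into six bins by GFP to DsRed ratio, PSI derived from sequencing read proportions per bin multiplied by bin number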
setup conditions: c terminus: a fixed tail appended
Class 1: protein stability index at least 3. Class -1: protein stability index below 3.

variant_designation=S12K qualitative_label=-1
variant_designation=D21R qualitative_label=-1
variant_designation=Y2W qualitative_label=-1
variant_designation=L22I qualitative_label=-1
variant_designation=S10C qualitative_label=-1
variant_designation=F8C qualitative_label=1
variant_designation=D13G qualitative_label=-1
variant_designation=A24D qualitative_label=-1
variant_designation=Y2V qualitative_label=-1
variant_designation=F8P qualitative_label=1
variant_designation=Y20A qualitative_label=-1
variant_designation=Y2S qualitative_label=-1
variant_designation=Y2D qualitative_label=1
variant_designation=D14C qualitative_label=-1
variant_designation=D13K qualitative_label=-1
variant_designation=S4E qualitative_label=1
variant_designation=G5Q qualitative_label=-1
variant_designation=D6L qualitative_label=-1
variant_designation=F8T qualitative_label=1
variant_designation=A7E qualitative_label=1
